# Test system: human glioblastoma U-87
# TEST SUMMARY: MTT cell viability assay, U-87
# Format: cell-based
# REPORTED CONDITIONS: MTT, 72 h, read-out: EC50, U-87
pEC50: −log10 of the molar value.
ASSAY ENDPOINT: pEC50

NS(=O)(=O)c1ccc(O)c(NCC(=NN=C(CNc2cc(S(N)(=O)=O)ccc2O)c2ccccc2)c2ccccc2)c1 [Compound 18] :: 3.98
NS(=O)(=O)c1ccc(O)c(NCC(=O)c2ccc(Cl)cc2)c1 [Compound 12] :: 3.86
CCOc1ccc(S(=O)(=O)N(CC)CC)cc1-n1cc(-c2ccccc2)n(CC)c1=O [Compound 21] :: 3.83

Cited source: paper PMC12249541
